Where do the numbers come from? From ChEMBL document CHEMBL1201862.

- System: INS1
- test description: INS-1E survival protection against cytokine death – cell-based, luminescence, retest, dose response (AID 449756);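 also: cell death triggered by IL-1 beta plus TNF-alpha plus IFN-gamma mixture; protective hits raise ATP signal compared with cytokine alone wells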
- Assay type: functional
- conditions used: Rattus norvegicus
Active and inactive are the calls of the source. Rule as the data show it: actives have a measured AC50 and inactives only a lower limit.
Labels: yes for active, no for inactive

molecule: CCn1c(=O)c(C(=O)Nc2ccccn2)c(O)c2ccccc21
category label: yes
//
molecule: CCN(CC)CCOc1ccc2c(c1)C(=NO)c1cc(OCCN(CC)CC)ccc1-2
category label: yes
//
molecule: CC[C@H](C)Cc1cn([C@@H](CCCCNC(=O)OC(C)(C)C)C(=O)NCCCCCCCCCCC(=O)N2CCN(C(=O)OC(C)(C)C)CC2)nn1
category label: yes
//
molecule: O=[N+]([O-])c1ccc(-n2cnc3ccccc32)c([N+](=O)[O-])c1
category label: yes
//
molecule: Nc1nonc1-n1nnc(C(=O)N/N=C/c2cc(Cl)ccc2O)c1CN1CCCCCC1
category label: yes
//
molecule: C#CCN(C(=O)c1cc(COc2cccc(C(F)(F)F)c2)on1)C1CCCCC1
category label: no
//
molecule: c1ccc(N2CCN(CC3CCCCC3)CC2)cc1
category label: yes
//
molecule: Cc1ccc2nc(-c3cccc(-c4cccc(Cl)c4)c3)c(NCc3ccccc3)n2c1
category label: yes
//
molecule: O=C(N/N=C/c1ccc([N+](=O)[O-])s1)C(O)c1ccccc1 (stereo not given)
category label: yes
//
molecule: CCCCCCCCNC(C)C(O)c1ccc(SC(C)C)cc1 (stereo not given) [SULOCTIDIL]
category label: yes
